# Tested on: ATCC25922 strain (Escherichia coli)
# experimental-protocol: Broth microdilution, antibacterial activity of the compound used alone
# Format: cell-based
outcome-measure: Antibacterial activity of the compound of Formula I, ATCC25922 (µg/mL)
Numbers only, in µg/mL.

Examples from the recorded data:
[
  {
    "compound": "Cc1sc(N=C2NCCCN2)nc1-c1cc(I)cc(I)c1 [Compound I-182]",
    "value-unit": "µg/mL",
    "numeric-readout": 256
  },
  {
    "compound": "COc1ccc(Oc2cccc(-c3csc(N=C4NCCCN4)n3)c2)c(C)c1 [Compound I-154]",
    "value-unit": "µg/mL",
    "numeric-readout": 256
  },
  {
    "compound": "CSc1cc2cccc(C)n2c1-c1nc(N=C(N)N)sc1Cl [Compound I-127]",
    "value-unit": "µg/mL",
    "numeric-readout": 128
  }
]

Continue with the next compound.
Input line: Tell me its Antibacterial activity of the compound of Formula I, ATCC25922 given O=[N+]([O-])c1ccc(Oc2ccc(I)cc2I)cc1-c1c[se]c(N=C2NCCCN2)n1 [Compound I-158] as the entry.
Output line: 256
